Values compiled from paper PMC6835763.

System: Proteus mirabilis PCM 543
Type: cell-based
Conditions: PCM 543, 24 h
Where a SMILES comes first, the peptide text is derived from it. Bridges are numbered along the chain shown (N, C = ends). Roman numbers before positions name the chains, in order. The star is where a group is joined. Palmitoyl = CCCCCCCCCCCCCCCC(=O)*; Myristoyl = CCCCCCCCCCCCCC(=O)*; Lauroyl = CCCCCCCCCCCC(=O)*
This listing pairs compounds with measured MBEC P. mirabilis, CL.

[
  {
    "COMPOUND": "CCCCCCCCCCCC(=O)N[C@@H](CCCCN)C(=O)N[C@@H](CCCCN)C(=O)N[C@@H](CSSC[C@H](NC(=O)[C@H](CCCCN)NC(=O)[C@H](CCCCN)NC(=O)CCCCCCCCCCC)C(N)=O)C(N)=O [Lipopeptide 1, C12-KKC-NH2] (I: Lauroyl-Lys-Lys-Cys-NH2 / II: Lauroyl-Lys-Lys-Cys-NH2; disulfide I:3-II:3)",
    "MBEC P. mirabilis, CL": ">512/>512 μg/mL"
  },
  {
    "COMPOUND": "CCCCCCCCCCCCCCCC(=O)N[C@@H](CCCCN)C(=O)N[C@@H](CCCNC(=N)N)C(N)=O [Lipopeptide 8, C16-KR-NH2] (Palmitoyl-Lys-Arg-NH2)",
    "MBEC P. mirabilis, CL": "> 512 µg/mL"
  },
  {
    "COMPOUND": "CCCCCCCCCCCCCC(=O)N[C@@H](CCCCN)C(=O)N[C@@H](CCCNC(=N)N)C(N)=O [Lipopeptide 4, C14-KR-NH2] (Myristoyl-Lys-Arg-NH2)",
    "MBEC P. mirabilis, CL": ">512/>512 μg/mL"
  }
]

###

System: Staphylococcus epidermidis ATCC 14990
Assay: MBFIC assay (biofilm formation inhibition, resazurin)
Type: cell-based
Conditions: polystyrene plates (PS), 96-well, ca. 5 × 10^8 CFU/mL in MHB II, 37 °C, 18 h, resazurin, visual, triplicate
Where a SMILES comes first, the peptide text is derived from it. Bridges are numbered along the chain shown (N, C = ends). Roman numbers before positions name the chains, in order. The star is where a group is joined. Palmitoyl = CCCCCCCCCCCCCCCC(=O)*; Myristoyl = CCCCCCCCCCCCCC(=O)*
This listing pairs compounds with measured MBFIC S. epidermidis, PS.
ATTRIBUTE_MEASURED: MBFIC S. epidermidis, PS (µg/mL)

[
  {
    "COMPOUND": "CCCCCCCCCCCCCCCC(=O)N[C@@H](CCCCN)C(=O)N[C@@H](CCCCN)C(=O)N[C@@H](CSSC[C@H](NC(=O)[C@H](CCCCN)NC(=O)[C@H](CCCCN)NC(=O)CCCCCCCCCCCCCCC)C(N)=O)C(N)=O [Lipopeptide 6, C16-KKC-NH2] (I: Palmitoyl-Lys-Lys-Cys-NH2 / II: Palmitoyl-Lys-Lys-Cys-NH2; disulfide I:3-II:3)",
    "TEST_VALUE": 256
  },
  {
    "COMPOUND": "CCCCCCCCCCCCCC(=O)N[C@@H](CCCCN)C(=O)N[C@@H](CCCCN)C(=O)N[C@@H](CSSC[C@H](NC(=O)[C@H](CCCCN)NC(=O)[C@H](CCCCN)NC(=O)CCCCCCCCCCCCC)C(N)=O)C(N)=O [Lipopeptide 3, C14-KKC-NH2] (I: Myristoyl-Lys-Lys-Cys-NH2 / II: Myristoyl-Lys-Lys-Cys-NH2; disulfide I:3-II:3)",
    "TEST_VALUE": 64
  }
]
